pIC50: recorded values
- assayed-system: Purine nucleoside phosphorylase (Plasmodium falciparum, UniProt Q8T9Z7)
- Sequence (Q8T9Z7 whole entry): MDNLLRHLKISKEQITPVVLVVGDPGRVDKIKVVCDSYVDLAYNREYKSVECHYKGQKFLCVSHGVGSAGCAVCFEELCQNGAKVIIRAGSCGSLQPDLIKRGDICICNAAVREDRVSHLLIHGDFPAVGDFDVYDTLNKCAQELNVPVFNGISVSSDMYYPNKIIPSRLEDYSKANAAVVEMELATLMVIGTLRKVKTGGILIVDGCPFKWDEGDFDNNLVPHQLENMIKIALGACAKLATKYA
Give only the number. pIC50 is defined as minus log10 of concentration in molar units.

Example cases with answers are listed next.
[
  {
    "record-smiles": "O=c1ccn(CCN2CCCC2)c(=O)[nH]1",
    "measured-metric": "pIC50",
    "measured": 3.85
  },
  {
    "record-smiles": "O=c1cc[nH]c(=O)n1CCN1CCCC1",
    "measured-metric": "pIC50",
    "measured": 4.38
  },
  {
    "record-smiles": "O=c1ccn(CCCN2CCC[C@H]2CO)c(=O)[nH]1",
    "measured-metric": "pIC50",
    "measured": 3.15
  }
]

Q: Specify the recorded pIC50 for O=c1cc[nH]c(=O)n1CCN1CCC[C@H]1CO , system: Purine nucleoside phosphorylase (Plasmodium falciparum, UniProt Q8T9Z7).
Result: 3.44
